tested on: ACHN; experiment: NCI tumour cell line growth inhibition, 48 h
The source made the active and inactive calls. Cut-off read from the data, not from the text of the source: active = GI50 up to about 1.1 µM and inactive = higher.
// one of label 1 = active, label 0 = inactive, no free text

molecule="CC(C)CC(=O)CC(O)C(Cl)(Cl)Cl (centres undefined)" group="label 0"

Query: Could you kindly confirm the outcome this assay logged for CNNC1=NS(=O)(=O)c2cc(C)c(Cl)cc2S1 ?
Response: label 0

Query: Could you kindly confirm the outcome this assay logged for c1cc(CSP234N5CCN2CCN3CCN4CC5)cc(CSP234N5CCN2CCN3CCN4CC5)c1 ?
Response: label 0

Query: Could you kindly confirm the outcome this assay logged for O=C1CCC(O)=C1O ?
Response: label 0

Query: Could you kindly confirm the outcome this assay logged for O=C1c2cccc3cccc(c23)C(=O)N1CCCNCCCCNCCCN1C(=O)c2cccc3cccc(c23)C1=O ?
Response: label 1

Query: Could you kindly confirm the outcome this assay logged for CN(C)CCSc1cc(-c2ccccc2)c2ccccc2n1 ?
Response: label 0

Query: Could you kindly confirm the outcome this assay logged for Cc1cccc(N2C(=O)C3c4[nH]c5ccccc5c4C4CCC(C(C)(C)C)CC4C3C2=O)c1C (centres undefined) ?
Response: label 0

Query: Could you kindly confirm the outcome this assay logged for CN(C(=O)C12C3C4(C(=O)O)C1(C(=O)N(C)C(C)(C)C)C1C2(C(=O)O)C3(C(=O)N(C)C(C)(C)C)C14C(=O)N(C)C(C)(C)C)C(C)(C)C (centres undefined) ?
Response: label 0

Query: Could you kindly confirm the outcome this assay logged for N#CC1(C#N)C(c2ccccc2)C=CC(c2ccc([N+](=O)[O-])cc2)C1(C#N)C#N (centres undefined) ?
Response: label 0
